# Experiment: Cell cytotoxicity assay on CEM cells
# Format: cell-based
# Test conditions: human, read-out: Cytotoxity (ID50, μM) CEM
Field: log10(IC50). Provide a value for each of the compounds that follow.
On a log10 scale: recorded IC50, unit µM.

Q: I would be grateful if you could share the reported log10(IC50) for COc1ccc(-c2c(C(=O)O)c(C(N)=O)cc3ccc4c(c23)OCO4)cc1OC .
Result: 0.48

Q: Reported log10(IC50), compound COC(=O)c1cc2ccc3c(c2c(-c2ccc4c(c2)OCO4)c1C(=O)OC)OCO3 : ____
Result: 1.70

Q: Data request, read-out log10(IC50), for CC(=O)NN1Cc2cc3ccc4c(c3c(-c3ccc5c(c3)OCO5)c2C1=O)OCO4
Result: 1.51

Q: For the compound CN(C)C(=O)c1cc2ccc3c(c2c(-c2ccc4c(c2)OCO4)c1C(=O)O)OCO3 , what log10(IC50) is on record?
Result: 1.88

Q: Could you tell me which log10(IC50) is on file for O=C1NCc2c1cc1ccc3c(c1c2-c1ccc2c(c1)OCO2)OCO3 ?
Result: 0.65

Q: Given Cc1c(C(=O)OCCCO)cc2ccc3c(c2c1-c1ccc2c(c1)OCO2)OCO3 , state its recorded log10(IC50).
Result: 1.66

Q: I am curious: what log10(IC50) value has been reported for CN1Cc2cc3ccc4c(c3c(-c3ccc5c(c3)OCO5)c2C1=O)OCO4 ?
Result: 1.43
